TEST_TARGET: PRMT5/MEP50 (Homo sapiens (Human), UniProt O14744)
Sequence (O14744 whole entry): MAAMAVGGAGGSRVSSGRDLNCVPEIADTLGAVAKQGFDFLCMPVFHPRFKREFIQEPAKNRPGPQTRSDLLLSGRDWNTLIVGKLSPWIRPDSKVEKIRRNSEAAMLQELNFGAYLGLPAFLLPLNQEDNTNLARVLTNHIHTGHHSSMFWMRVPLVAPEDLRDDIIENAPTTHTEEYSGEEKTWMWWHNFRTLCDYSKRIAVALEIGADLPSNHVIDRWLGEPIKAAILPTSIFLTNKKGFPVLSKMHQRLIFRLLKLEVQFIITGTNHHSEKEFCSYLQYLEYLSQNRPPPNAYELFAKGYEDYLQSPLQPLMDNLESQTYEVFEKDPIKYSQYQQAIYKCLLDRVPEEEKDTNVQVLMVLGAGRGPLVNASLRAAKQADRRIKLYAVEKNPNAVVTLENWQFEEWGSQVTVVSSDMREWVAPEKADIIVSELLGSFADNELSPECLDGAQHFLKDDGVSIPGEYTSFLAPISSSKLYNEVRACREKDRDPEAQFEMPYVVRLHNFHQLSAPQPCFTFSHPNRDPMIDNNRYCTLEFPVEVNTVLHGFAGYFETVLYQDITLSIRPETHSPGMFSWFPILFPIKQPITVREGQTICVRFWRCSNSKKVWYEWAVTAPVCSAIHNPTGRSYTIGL
Sequence (Q9BQA1 whole entry partner): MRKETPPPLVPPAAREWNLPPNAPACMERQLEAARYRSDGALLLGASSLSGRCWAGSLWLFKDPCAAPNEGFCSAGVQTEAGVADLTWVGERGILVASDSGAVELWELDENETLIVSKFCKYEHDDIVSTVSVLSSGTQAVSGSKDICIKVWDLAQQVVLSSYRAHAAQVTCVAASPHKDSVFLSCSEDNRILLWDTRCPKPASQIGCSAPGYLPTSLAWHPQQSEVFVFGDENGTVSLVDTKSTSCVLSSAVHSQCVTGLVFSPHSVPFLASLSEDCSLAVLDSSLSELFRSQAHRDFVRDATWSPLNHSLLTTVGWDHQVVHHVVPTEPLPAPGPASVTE
PROCEDURE_DETAILS: PRMT5/MEP50 enzyme inhibition assay, Assay 2 (384-well, MALDI mass spectrometry, histone H4 1-21 peptide)
Format: biochemical
CONDITION: 1 μM SAM, 0.1 μM histone H4 1-21 peptide, 18-hour incubation at rt
QUANTITY_KIND: IC50

Study these solved cases before continuing.
COMPOUND	RESULT
C[C@]1(CCc2ccc3ccc(N)nc3c2)C[C@@H](c2ccc3c(N)ncnn23)[C@H](O)[C@@H]1O	< 1 nM
C[C@]1(CCCCc2ccc(Cl)c(N)n2)C[C@@H](n2ccc3c(N)ncnc32)[C@H](O)[C@@H]1O	< 1 nM
C[C@]1(CCc2cc(F)c3ccc(N)nc3c2)C[C@@H](n2ccc3c(N)ncnc32)[C@H](O)[C@@H]1O	< 1 nM
Nc1ncnc2c1ccn2[C@H]1[C@H](O)[C@H](O)[C@]2(C(O)c3ccc(Cl)c(Cl)c3)C[C@H]12 (single isomer, unassigned) [Compound 7]	1 to 100 nM
Cc1cnc2cc(OC[C@@]34C[C@@H]3[C@@H](n3ccc5c(N)ncnc53)[C@H](O)[C@@H]4O)ccn12	< 1 nM

Query: Reported IC50, compound CCCCCOC(=O)Nc1ccc2cc(CC[C@@]3(C)C[C@@H](n4ccc5c(N)ncnc54)[C@H](O)[C@@H]3O)ccc2n1 : ____
Result: > 100 nM

Query: Reported IC50, compound C[C@]1(CCc2ccc3cc(Cl)c(N)nc3c2)C[C@@H](n2ccc3c(N)ncc(F)c32)[C@H](O)[C@@H]1O : ____
Result: < 1 nM

Query: Reported IC50, compound Nc1nc2cc(CC[C@@]3(F)C[C@@H](n4ccc5c(N)ncnc54)[C@H](O)[C@@H]3O)cc(F)c2cc1Cl : ____
Result: < 1 nM

Query: Reported IC50, compound C[C@]1(CCc2cc(F)c3ccc(N)nc3c2)C[C@@H](n2ccc3c(N)ncc(F)c32)[C@H](O)[C@@H]1O : ____
Result: < 1 nM

Query: Reported IC50, compound C[C@]1(CCc2ccc3cc4c(nc3c2)NC(=O)CO4)C[C@@H](n2ccc3c(N)ncnc32)[C@H](O)[C@@H]1O : ____
Result: < 1 nM

Query: Reported IC50, compound C[C@]1(CCc2ccc3cc(Br)c(N)nc3c2)C[C@@H](n2ccc3c(N)nc(Cl)nc32)[C@H](O)[C@@H]1O : ____
Result: < 1 nM

Query: Reported IC50, compound C[C@H]1[C@H](CCc2ccc3ccc(N)nc3c2)[C@@H](O)[C@@H](O)[C@@H]1n1ccc2c(N)ncnc21 : ____
Result: < 1 nM

Query: Reported IC50, compound CC(C)C(=O)O[C@H]1[C@H](n2ccc3c(N)ncnc32)[C@H]2C[C@@]2(CCc2ccc3nc(N)ccc3c2)[C@H]1OC(=O)C(C)C : ____
Result: > 100 nM

Query: Reported IC50, compound Nc1ccc2ccc(CC[C@@]34CC3[C@@H](n3ccc5c(N)ncnc53)[C@H](O)[C@@H]4O)nc2n1 (some centres unmarked) : ____
Result: < 1 nM

---

System: HepG2 hepatoma cells
PROCEDURE_DETAILS: Cell proliferation assay, HepG2 (CellTiter-Glo, 7 days)
Format: cell-based
CONDITION: HepG2, 7 days, CellTiter-Glo 2.0
QUANTITY_KIND: EC50

Study these solved cases before continuing.
SMILES_STR	RESULT
C=C1[C@@H](n2ccc3c(N)ncnc32)[C@H](O)[C@H](O)[C@H]1CCc1ccc2cc(Br)c(N)nc2c1	< 20 nM
C[C@]1(CCc2cc(F)c3cc(Cl)c(N)nc3c2)C[C@@H](n2ccc3c(N)nc(Cl)nc32)[C@H](O)[C@@H]1O	< 20 nM
C[C@]1(CCc2ccc3cc(C#N)c(N)nc3c2)C[C@@H](n2ccc3c(N)ncnc32)[C@H](O)[C@@H]1O	20 to 100 nM
C[C@@H]1[C@H](CCc2ccc3ccc(N)nc3c2)[C@@H](O)[C@@H](O)[C@@H]1n1ccc2c(N)ncnc21	≥ 1000 nM
C[C@]1(CCc2ccc3cc(C(F)F)c(N)nc3c2)C[C@@H](n2ccc3c(N)ncnc32)[C@H](O)[C@@H]1O	< 20 nM
Nc1nc2cc(CC[C@@]34C[C@@H]3[C@@H](n3ccc5c(N)ncnc53)[C@H](O)[C@@H]4O)ccc2cc1Br	< 20 nM

Query: Query for HepG2 hepatoma cells: what EC50 does the record show for C[C@]1(CCc2ccc3cc(Cl)c(N)nc3c2)C[C@@H](n2ccc3c(N)ncnc32)[C@H](O)[C@@H]1O ?
Result: < 20 nM
